Consider the following sequences and their measured apparent KD of MS2 coat protein readings.
System: MS2 coat protein
Assay: apparent KD of MS2 coat protein; higher = weaker reporter binding
Settings: Eterna round: R107; input ligand: theophylline 20 uM
Answer with a number only, understood to be in nM.

INSERT INTO results (construct_sequence, assayed_target, property_name, unit_descriptor, endpoint_value) VALUES
  ('AGACAUGAGGAUCACCCAUGUAGUACGGAUACCAGAUCCAGAUGUAUCCCUUGGCAGCUGUGGUACAGCGUUGCAACGCUCCUAG [Exclusion - Theophylline A (Freestyle 18)]', 'MS2 coat protein', 'apparent KD of MS2 coat protein', 'nM', 23.9),
  ('ACACAUGACGCGGCCGCCACUGCAACAUGAGGAUCACCCAUGUCACCCAUGUAUGACAUGAGGAUCAGGACCGGGCGUGUGUGGA [Same State Tryptophan B 3]', 'MS2 coat protein', 'apparent KD of MS2 coat protein', 'nM', 491),
  ('UGGAGUAUCAGACAUGAGGAUCACCCAUGUCGAGGACCGGUACGGCCGCCACUCGGCAGUUUGCGUCCUCAGGUACUCCGGGUAA [Edlatearis]', 'MS2 coat protein', 'apparent KD of MS2 coat protein', 'nM', 26.9),
  ('UUCACGGGCACGGCCGCCACUAACCAACAUGAGGAUCACCCAUGUGUAUUGGACGACCUCUUUGCUAGGACCGGGUGUAUGGUUC [theeternabot_exclusion_MS2_Trp_B_15]', 'MS2 coat protein', 'apparent KD of MS2 coat protein', 'nM', 32.3);

Give the reported value of apparent KD of MS2 coat protein for this record: CGAGUUCGCUGAUGGGCUACGUCAGGUGAUACCAGCCACUCCCGCGGCCCUUGGCAGCACAUGAGGAUCACCCAUGUAGAGCUUG [Esinve]
28.6

Give the reported value of apparent KD of MS2 coat protein for this record: "GGGCGCGAGACGGCCGCCACUACACAUGAGGAUCACCCAUGUAUGGCAACAUGAGGAUCUGCCAUUAGGACCGGGUCAGGGCCCA"
53.4

Give the reported value of apparent KD of MS2 coat protein for this record: GAGACGUCGGGAAGGAGCGCAUCAAAACCACACAUGAGGAUCACCCAUGUAUAAAUAUGCAUGCAGGUAGGUCGCCCGGUGUCCA [SS-ArgB16]
33.6

Give the reported value of apparent KD of MS2 coat protein for this record: ACGUAAUGCAGAAGGAGCGUCGAUCUCAUACAUGAGGAUCACCCAUGUUACAUGGUUGGACGACAGGUAGGUCGCUGAAGUACGA [#06 Exclusion - Arginine B]
35.5

Give the reported value of apparent KD of MS2 coat protein for this record: UAGACGGCCGGAAGGAGCGGUACAUGAGGAUCACCCAUGUAUCUCUGGGCAUCCGUAGAGUGCCAGGUAGGUCGCCGGUUGCGGG [XArg-B22]
13.8

Give the reported value of apparent KD of MS2 coat protein for this record: AGCUCGCAAUCCUCAGCGUCAAAGACGCGUCGAGGACCGGUACGGCCGCCACUCGACAAGAGGAUCACCCUUGUCUAAGCGAGCA [TrypAX 5 #SwitchBubble #AlternativeMS2 #MS2Late #CuTurnoff]
355

----------
Tested on: K4 kissing-loop RNA reporter;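 also: bound reporter read as fluorescence of individual clusters on recovered sequencing chips by microscopy, with normalized cluster intensities fitted with a binding model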
Assay: apparent KD of K4 kissing-loop reporter; higher = weaker reporter binding
Details: Eterna round: R107; input ligand: theophylline 20 uM
Consider the following sequences and their measured apparent KD of K4 kissing-loop reporter readings.
Answer with a number only, understood to be in nM.

INSERT INTO results (construct_sequence, property_name, endpoint_value) VALUES
  ('GAUACGUCAGUGAUGUUGAUGUAUUACACAGAGGAUAUCGUAAUGACGAGAAGGCUGAGCCAUCUAGAGAUACGUAAGACGUAUC [FMN A SS t5]', 'apparent KD of K4 kissing-loop reporter', 188);

Give the reported value of apparent KD of K4 kissing-loop reporter for this record: "UGAUAGGACAGAAGGAGCGGUAGUGAUGUUACCAAAAGUAUAAGGUGUCAAAAGACACCCUACCAGGUAGGUCGCUGUCCUAUCU"
506

Give the reported value of apparent KD of K4 kissing-loop reporter for this record: GGUGCUGGCCAGUGAUGUUGGCGAAUACUGAAGGAUAUGAUAGGCGUCAGAAGGUCAAGAGUAAUAUCUAGAAUGAAUAGUGAUA [theeternabot_sameState_KL_FMN_A_38]
439

----------
Tested on: MS2 coat protein
Test: apparent KD of MS2 coat protein, switch ON state; designed switch direction (-1 OFF switch, 1 ON switch): -1; higher = weaker reporter binding
Conditions: FMN input: 0 or 200 uM; Eterna round: R93 (includes R88 designs)
Consider the following sequences and their measured apparent KD of MS2 coat protein readings.
Mention the unit after the number when you answer.

These recorded examples may help you get a feel for the data.
INSERT INTO assay_data (construct_sequence, endpoint_value) VALUES
  ('AAAAAGUGAGGAUAUAGCAAAGGUCACGAAAGUGACAAAGGCUAGAAGGCACAUGAGGAUCACCCAUGUAAAAA [Fiskers Exclusion 4 D2 63% 1]', '41.6 nM'),
  ('AAAAUGUUAGGAUAUGUGAAGGCGUCUGAUAGACGAGGCCUGCAGAAGGAACAUGAGGAUCACCCAUGUAAAAA [Mod 3 of Nando''s Round 1 Power Srip]', '34 nM');

Give the reported value of apparent KD of MS2 coat protein for this record: AAGAAGUCAGGAUAUGCCAAAGAUCACGAAAGUGACUAAGGGCAGAAGGGACAUGAGGAUCACCCAUGUAAAGA [Opal 4]
42.9 nM

Give the reported value of apparent KD of MS2 coat protein for this record: AAAUUGUCAGGAUAUCCUAUAACUCUAAAAUAGAGGAGAUAGGAGAAGGGACAUGAGGAUCACCCAUGUAAAAC [May 86]
43.7 nM

----------
Test system: MS2 coat protein
Experiment: apparent KD of MS2 coat protein; designed switch direction (-1 OFF switch, 1 ON switch): -1; higher = weaker reporter binding
Details: Eterna round: R95; input ligand: none
Consider the following sequences and their measured apparent KD of MS2 coat protein readings.
Answer with a number only, understood to be in nM.

These recorded examples may help you get a feel for the data.
INSERT INTO measurements (construct_sequence, property_name, unit_descriptor, endpoint_value) VALUES
  ('UCUAGCUUUUUGCGUCAAGCAUUGAAGUCUGUUAUCGUUACAUGAGGAUCACCCAUGUUUGUUUUAUGUCGUCUUGA [JR_SV3TOV2_Sub100] (puzzle: Sensor v3, turn-off variant 2)', 'apparent KD of MS2 coat protein', 'nM', 22.2),
  ('GAUUAUGCGAGCUUUAGGGACAUGAGGAUCACCCAUGUUCGUCUUAUUGGUCUGAAUACACUGACAUACCUAAAUCU [JMF 56] (puzzle: Sensor v3, turn-off variant 1)', 'apparent KD of MS2 coat protein', 'nM', 15.9),
  ('CAUACUGAAGUUAGGAUAUUCGGACGUAUACGGAUGGAGAAGGGACAUGAGGAUCACCCAUGUAGAUAGUAAAG [EX-4 Malc #12] (puzzle: Brourd''s mod of Exclusion 4)', 'apparent KD of MS2 coat protein', 'nM', 22.3);

Please look at the following sequence next.
Give the reported value of apparent KD of MS2 coat protein for this record: AGUACUAACACGAAAGUGUUAGUACAAUAAGCUUGUGAAACAUGAGGAUCACCCAUGUCCUCAUUAGCUCGUCUUAU [salish99_TOv2_r3_050] (puzzle: Sensor v3, turn-off variant 2)
172

----------
Tested on: MS2 coat protein
Test: apparent KD of MS2 coat protein; designed switch direction (-1 OFF switch, 1 ON switch): -1; higher = weaker reporter binding
Conditions: input ligand: none
Property Name: apparent KD of MS2 coat protein (nM)
Answer with a number only, understood to be in nM.

These recorded examples may help you get a feel for the data.
INSERT INTO measurements (construct_sequence, property_name, unit_descriptor, endpoint_value) VALUES
  ('UACAGACAUGAGGAUCACCCAUGUUAGGAUAUGCAGAACUCUACUCACGUGGCGUUUAGCAGAAGGAAUACGGG [Eternabot (L1) Solution 68] (Eterna round: R97, puzzle: Exclusion 1)', 'apparent KD of MS2 coat protein', 'nM', 74.6),
  ('UUAAAUCAUGUAGGAUAUGCGUGGCGAAGCUAUGCAGAAGGACAUGAGGAUCACCCAUGUCUUUCCGUCUGCGUACAGAUGGAA [JL Eng1 1.08 mod 2] (Eterna round: R96, puzzle: Exclusion NG 1)', 'apparent KD of MS2 coat protein', 'nM', 24.8),
  ('ACCCUAAUCGUGAGGAUAUACUGCGUCAAAGACGGGUAGAAGGUACAUGAGGAUCACCCAUGUUUGGCUACUAA [Eternabot (L2) Solution 48] (Eterna round: R97, puzzle: Brourd''s mod of Exclusion 4)', 'apparent KD of MS2 coat protein', 'nM', 27.7),
  ('AAACACCAAGGAUAUACAUGAGGAUCACCCAUGUGGUCCGGCACGGGUCUCGAUUCGAGUAGAAGGUGGAUGGG [Eternabot (L1) Solution 80] (Eterna round: R97, puzzle: Exclusion 3)', 'apparent KD of MS2 coat protein', 'nM', 76.5);

Give apparent KD of MS2 coat protein for CUGCAACAUGAGGAUCACCCAUGUCAGGAUAUUCCAAAAUCGUCGAAAGACGAUAACAGAAGAAGGGACAGUAG [Fiskxlusion 7 - Jieux - Exclusion 1] (Eterna round: R97, puzzle: Exclusion 1) tested on MS2 coat protein.
35.6

Give apparent KD of MS2 coat protein for UUAAGGAUAGAGGAUAUAUUAAAGAAGGUGGCGAUAGAAGGCUAGACAUGAGGAUCACCCAUGUAAAUUGGGAU [JR_Ex6_Sub068] (Eterna round: R97, puzzle: Exclusion 6) tested on MS2 coat protein.
309

Give apparent KD of MS2 coat protein for AUAAAUAAUGCAGGAUAUGUCGGCGAAAGGCCGGCAGAAGGGCAGCGUGGAUGUAUCCUGAACAUGAGGAUCACCCAUGUGAAA [Ederisbi] (Eterna round: R96, puzzle: Exclusion NG 1) tested on MS2 coat protein.
347
